Target: rat mGlu5 (Rattus norvegicus, UniProt P31424)
Sequence (P31424 21-1203): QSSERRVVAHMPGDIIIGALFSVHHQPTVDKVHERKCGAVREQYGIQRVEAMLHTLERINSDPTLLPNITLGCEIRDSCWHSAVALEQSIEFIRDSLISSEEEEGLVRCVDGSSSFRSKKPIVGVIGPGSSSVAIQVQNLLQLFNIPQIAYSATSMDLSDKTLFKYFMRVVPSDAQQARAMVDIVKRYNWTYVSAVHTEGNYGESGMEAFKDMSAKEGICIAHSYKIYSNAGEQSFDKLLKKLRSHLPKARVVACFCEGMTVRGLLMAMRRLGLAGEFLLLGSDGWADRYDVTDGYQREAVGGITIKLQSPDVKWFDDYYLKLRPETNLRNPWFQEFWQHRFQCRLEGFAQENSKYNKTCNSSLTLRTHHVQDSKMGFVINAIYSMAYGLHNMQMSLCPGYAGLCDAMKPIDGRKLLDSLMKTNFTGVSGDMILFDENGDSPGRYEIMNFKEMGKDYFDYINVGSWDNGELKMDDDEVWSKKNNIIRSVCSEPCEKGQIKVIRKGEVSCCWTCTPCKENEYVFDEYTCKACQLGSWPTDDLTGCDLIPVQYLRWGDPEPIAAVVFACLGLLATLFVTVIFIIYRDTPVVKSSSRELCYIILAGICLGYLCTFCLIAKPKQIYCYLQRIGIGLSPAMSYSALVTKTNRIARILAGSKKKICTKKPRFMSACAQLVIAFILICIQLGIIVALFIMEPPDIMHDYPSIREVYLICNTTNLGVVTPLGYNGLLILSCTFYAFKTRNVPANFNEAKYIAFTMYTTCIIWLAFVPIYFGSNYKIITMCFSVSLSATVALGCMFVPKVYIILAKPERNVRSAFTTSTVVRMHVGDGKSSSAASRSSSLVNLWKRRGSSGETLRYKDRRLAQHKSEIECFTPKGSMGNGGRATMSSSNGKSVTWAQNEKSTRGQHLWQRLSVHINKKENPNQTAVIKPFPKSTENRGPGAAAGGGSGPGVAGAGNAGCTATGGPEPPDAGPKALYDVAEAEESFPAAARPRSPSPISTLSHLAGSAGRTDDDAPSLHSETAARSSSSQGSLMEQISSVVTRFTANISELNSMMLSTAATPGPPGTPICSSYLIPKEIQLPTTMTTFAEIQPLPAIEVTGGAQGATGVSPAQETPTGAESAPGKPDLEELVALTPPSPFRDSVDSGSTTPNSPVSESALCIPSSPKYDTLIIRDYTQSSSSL
Assay: Calcium mobilization mGlu5 assay
Assay type: cell-based
measured attribute: mGlu5: no activity up to the highest concentration tested

{"columns": ["structure as smiles", "result value"],
 "data": [
  ["CCOc1ccc(OCc2cc3n(n2)[C@H](C)CN(c2ccc(F)cc2)C3=O)cc1", "> 30 µM"],
  ["COc1cccnc1OCc1cc2n(n1)[C@H](C)CN(c1ccc(F)cc1)C2=O", "> 30 µM"],
  ["C[C@@H]1CN(c2ccc(F)cc2)C(=O)c2cc(COc3ccc(OC(F)(F)F)cc3)nn21", "> 30 µM"],
  ["C[C@@H]1CN(c2ccc(F)cc2)C(=O)c2cc(COc3cccc(C(F)(F)F)n3)nn21", "> 30 µM"],
  ["C[C@@H]1CN(c2cc(F)ccc2C#N)C(=O)c2cc(COc3ccc(Cl)cn3)nn21", "> 30 µM"],
  ["C[C@@H]1CN(c2ccc(F)cc2)C(=O)c2cc(COc3ncccc3C(F)(F)F)nn21", "> 30 µM"]
]}

---

Assay: Intrinsic clearance in rat liver microsomes
Type: in vitro ADME
Conditions: predicted hepatic clearance based on intrinsic clearance in rat liver microsomes
Quick reference for rat CLhep among some compounds

{"columns": ["structure as smiles", "rat CLhep (mL/min/kg)"],
 "data": [
  ["C[C@@H]1CN(c2cccc(F)c2)C(=O)c2cc(COc3ccc(F)cn3)nn21", 53.0],
  ["C[C@@H]1CN(c2cc(F)cc(C#N)c2)C(=O)c2cc(COc3ccc(Cl)cn3)nn21", 47.7],
  ["C[C@@H]1CN(c2ccccc2Cl)C(=O)c2cc(COc3ccc(F)cn3)nn21", 66.5],
  ["C[C@@H]1CN(c2c(F)cccc2F)C(=O)c2cc(COc3ccc(F)cn3)nn21", 64.6],
  ["Cc1cccc(N2C[C@@H](C)n3nc(COc4ccc(F)cn4)cc3C2=O)c1", 58.4],
  ["C[C@@H]1CN(c2cc(F)ccc2F)C(=O)c2cc(COc3ccc(F)cn3)nn21", 49.6],
  ["C[C@@H]1CN(c2cccc(Cl)c2)C(=O)c2cc(COc3ccc(F)cn3)nn21", 51.9],
  ["C[C@@H]1CN(c2ccccc2F)C(=O)c2cc(COc3ccc(F)cn3)nn21", 64.7],
  ["C[C@@H]1CN(c2cnccc2F)C(=O)c2cc(COc3ccc(Cl)cn3)nn21", 36.0],
  ["C[C@@H]1CN(c2cccc(F)c2F)C(=O)c2cc(COc3ccc(F)cn3)nn21", 63.6],
  ["C[C@@H]1CN(c2cccnc2)C(=O)c2cc(COc3ccc(Cl)cn3)nn21", 42.0],
  ["C[C@@H]1CN(c2ccccn2)C(=O)c2cc(COc3ccc(Cl)cn3)nn21", 69.5],
  ["C[C@@H]1CN(c2cncc(F)c2)C(=O)c2cc(COc3ccc(Cl)cn3)nn21", 26.6],
  ["C[C@@H]1CN(c2cncc(C#N)c2)C(=O)c2cc(COc3ccc(Cl)cn3)nn21", 22.8]
]}

---

Assay: Mouse IP single time point tissue distribution
Details: in vivo, 10 mg/kg, plasma concentration, 30 min post dose, n = 3
measured attribute: concentration at 30 min (nM)

{"columns": ["molecule", "unit info", "result value"],
 "data": [
  ["C[C@@H]1CN(c2cccnc2F)C(=O)c2cc(COc3ccc(Cl)cn3)nn21 [Compound 106]", "nM", 2590]
]}
